Test system: HCT-15 colon
Metric Name: GI50

smi=CCCCCCN(CCCCCC)CCCNc1nccc2ccccc12 reported_value="1410 nM"
smi=CCCNc1nc(N(C)O)nc(N(C)O)n1 reported_value="504 nM"
smi=O=C1C2=C(C(=O)c3c(O)ccc(O)c31)N(c1ccc(N3CCOCC3)nc1)Cc1ccccc1O2 reported_value="205 nM"
smi=Cc1cccc(CN(C)c2ccc(CO)c(Cl)c2)c1 reported_value="19800 nM"
smi=Cc1ccc(/C=C(\C#N)n2nnc3cc(Cl)c(Cl)cc32)cc1 reported_value="1730 nM"
smi=Cc1ccc(-n2c3c(c4c(CN5CCCCC5)c(O)ccc42)CCc2ccccc2C3=O)cc1 reported_value="> 100000 nM"
smi=CCN1CCC[C@H]1c1cc(O)c2c(c1OC)C[C@H]1C[C@H]3[C@H](N)C(=O)C(C(N)=O)=C(O)[C@@]3(O)C(=O)C1=C2O reported_value="54.7 nM"

Data request: Which GI50 reading was recorded for the compound CCOP(=O)(CCP(=O)(OCC)OCC)OCC.C[CH2][Sn]([Cl])([Cl])[CH2]C ?
Data returned: 51200 nM

Source: PubChem BioAssay (NCI)
